Cited source: PubChem BioAssay AID1963873

We begin with a simple list: items and their reported viability, T/C.
# System: 276233-004-R-J1-PDC KRAS spheroids with HUVEC/MSC, viability;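 also: cells exposed to agents for seven days before viability read; 100% = DMSO vehicle control wells and lower values mean fewer viable cells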
# procedure.details: Anticancer human tumor 276233-004-R-J1-PDC patient-derived colon adenocarcinoma cell line growth inhibition [KRAS2]
# cond: second compound 0.316 µM; first compound 1 µM; stronger effect = lower value
The response must be a number in % with no trailing unit.

Here's what some known entries look like.
COC(=O)c1ccc2c(C(=Nc3ccc(N(C)C(=O)CN4CCN(C)CC4)cc3)c3ccccc3)c(O)[nH]c2c1 + COc1cc2nc(C)nc(NC(C)c3cc(N)cc(C(F)(F)F)c3)c2cc1OC1CCOC1 : 65.3
CC1OCC2(CCN(c3cnc(Sc4ccnc(N)c4Cl)c(N)n3)CC2)C1N (stereo not drawn) + C=CC(=O)N1CCN(c2nc(OCC3CCCN3C)nc3c2CCN(c2cccc4cccc(C)c24)C3)CC1CC#N : 76.7

We now examine a further compound.
Problem: GET /values?readout=viability, T/C&item= CC(C)NCC(C(=O)N1CCN(c2ncnc3c2C(C)CC3O)CC1)c1ccc(Cl)cc1 (stereo not drawn) + COc1cc2nc(C)nc(NC(C)c3cc(N)cc(C(F)(F)F)c3)c2cc1OC1CCOC1
Result: 57.8
